// data source = patent US10519140B2

TARGET_UNDER_TEST: mouse ENT-1 transporter (Mus musculus)
Sequence (Q9JIM1 whole entry): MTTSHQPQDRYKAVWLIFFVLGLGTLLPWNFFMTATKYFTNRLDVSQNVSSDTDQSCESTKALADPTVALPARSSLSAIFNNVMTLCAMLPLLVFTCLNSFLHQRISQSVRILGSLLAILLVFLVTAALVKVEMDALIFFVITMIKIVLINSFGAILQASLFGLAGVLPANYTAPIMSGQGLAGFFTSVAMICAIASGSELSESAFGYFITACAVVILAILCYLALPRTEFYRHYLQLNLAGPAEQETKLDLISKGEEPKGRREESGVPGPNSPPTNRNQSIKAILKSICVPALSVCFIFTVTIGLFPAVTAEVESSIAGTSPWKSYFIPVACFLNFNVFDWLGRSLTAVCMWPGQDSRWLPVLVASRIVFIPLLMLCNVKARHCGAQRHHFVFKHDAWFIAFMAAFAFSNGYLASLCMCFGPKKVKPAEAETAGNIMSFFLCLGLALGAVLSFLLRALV
TEST_SUMMARY: Adenosine transport activity (ENT1, [3H]-adenosine uptake inhibition)
TEST_CONTEXT: stable cells expressing mouse ENT-1; [2,8-3H]-adenosine 6 nM, 20 min
EXPERIMENTAL_READOUT: IC50 (nM)
Give a bare numeral; the unit nM is implied.

Worked cases, IC50 given:
- SMILES_STRING: "Cc1ncc(-c2ccc3c(c2)N(c2cc4c(cn2)C(C)(C)C(=O)N4)C(=O)C3(C)C)cn1"
  EXPERIMENTAL_READOUT: "IC50"
  OBSERVED_MEASUREMENT: 385
- SMILES_STRING: "Cc1ncc(-c2ccc3c(c2)N(c2ccc4c(n2)NC(=O)C4(C)C)C(=O)C3(C)C)cn1"
  EXPERIMENTAL_READOUT: "IC50"
  OBSERVED_MEASUREMENT: 6.7
- SMILES_STRING: "Cc1ncc(-c2ccc3c(c2)N(c2cccc4[nH]ccc24)C(=O)C3(C)C)cn1"
  EXPERIMENTAL_READOUT: "IC50"
  OBSERVED_MEASUREMENT: 742
- SMILES_STRING: "Cc1ncc(-c2ccc3c(c2)N(c2cnc(N4CCOCC4)cn2)C(=O)C3(C)C)cn1"
  EXPERIMENTAL_READOUT: "IC50"
  OBSERVED_MEASUREMENT: 415
- SMILES_STRING: "Cc1ncc(-c2ccc3c(c2)N(c2cncc(N4C(=O)OC[C@@H]4C(C)C)n2)C(=O)C3(C)C)cn1"
  EXPERIMENTAL_READOUT: "IC50"
  OBSERVED_MEASUREMENT: 387
- SMILES_STRING: "CC(=O)Nc1cncc(N2C(=O)C(C)(C)c3ccc(-c4cnc(C)nc4)cc32)n1"
  EXPERIMENTAL_READOUT: "IC50"
  OBSERVED_MEASUREMENT: 48

[ask] Fill in IC50 for record COCCNc1cncc(N2C(=O)C(C)(C)c3ccc(-c4cnc(C)nc4)cc32)n1
[reply] 87.6

[ask] Fill in IC50 for record Cc1ncc(-c2ccc3c(c2)N(c2cncc(N4CCC45COC5)n2)C(=O)C3(C)C)cn1
[reply] 110
